- experimentalDetails: Noncompartmental pharmacokinetic parameters (Cmax, Tmax, AUC, Racc) in QD and BID cohorts of Form B
- Assay type: in vivo, human
- measurementConditions: human, plasma, oral, 400 mg, Cohort 3, 400 mg QD of Form B, Day 1; read-out: Tmax, Median
measuredEndpoint: Tmax (h)
Reply with just the number (in h).

-- ask Specify reported Tmax for the compound shown: CC(C)N1CCN(c2ccc(Nc3ncc4cc5n(c4n3)C3(CCCCC3)CNC5=O)nc2)CC1
-- reply 6

====

- experimentalDetails: Plasma concentration versus time of Compound I and metabolite Compound III in patients dosed QD or BID with Form B of Compound II plus fulvestrant
- Assay type: in vivo, human
- measurementConditions: human, plasma, oral, 200 mg, 200 mg BID of Form B, Day 1, 0.0 h, Median; read-out: Compound I Concentration
measuredEndpoint: concentration at 0 h (ng/mL)
Reply with just the number (in ng/mL).

-- ask Specify reported concentration at 0 h for the molecule shown: CC(C)N1CCN(c2ccc(Nc3ncc4cc5n(c4n3)C3(CCCCC3)CNC5=O)nc2)CC1 [Compound I]
-- reply 0
